protocol_text: NCI Yeast Anticancer Drug Screen. Data for the mec2-1 strain (AID 157)
experimental_parameters: S. cerevisiae mec2-1 strain, at 50.0 µM (retest, dose inferred, filed as 5.0), stronger effect = higher value
The panel holds about 79,000 compounds, 15% with a hit somewhere; the sample as a whole holds those more often.
List of growth inhibition values.

{"molecule": "N#CC1=CN(Cc2ccccc2)C(C#Cc2ccccc2)C=C1 (stereo unspecified)", "growth inhibition (%)": 9}
{"molecule": "OCCc1cccc2ccc3ccccc3c12", "growth inhibition (%)": 55}
{"molecule": "CN(C)CCCNc1cc(O)c2c(c1O)C(=O)c1ccccc1C2=O", "growth inhibition (%)": 94}
{"molecule": "O=c1c2cc3ccccc3cc2c(=O)n2n1CC=CC2", "growth inhibition (%)": 6}
{"molecule": "CC(O)C1CCCC[N+]1(C)C (stereo unspecified)", "growth inhibition (%)": 8}
{"molecule": "CSc1c(S(C)=O)c2ccccc2n1C (stereo unspecified)", "growth inhibition (%)": 27}
{"molecule": "O=C(O)C(Cc1ccc(O)cc1)NC(=O)N(c1ccccc1)c1ccccc1 (stereo unspecified)", "growth inhibition (%)": 52}
{"molecule": "Cn1nc(-c2ccc3c(c2)OCO3)[n+]([O-])c2c(=O)n(C)c(=O)nc1-2", "growth inhibition (%)": 97}
{"molecule": "C1=Nc2ccccc2C=Nc2ccccc2C=Nc2ccccc2C=Nc2ccccc21.[Cl-].[Pt+2]", "growth inhibition (%)": 97}
{"molecule": "C[C@]12CC[C@@H]3c4cc(OCC(F)(F)F)c(O)cc4CC[C@H]3[C@@H]1CC[C@@H]2O", "growth inhibition (%)": 99}
{"molecule": "Cc1cc(C)nc(NS(=O)(=O)c2ccc(NC(=O)c3cccnc3Nc3cccc(Cl)c3)cc2)n1", "growth inhibition (%)": 34}

---

protocol_text: NCI Yeast Anticancer Drug Screen. Data for the rad50 strain (AID 155);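 note: 0% = growth of vehicle-only cultures of the same strain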
experimental_parameters: S. cerevisiae rad50 strain growth inhibition; at 50.0 µM; stronger effect = higher value
The panel holds about 79,000 compounds, 15% with a hit somewhere; the sample as a whole holds those more often.

{"molecule": "COc1cc(O)c2c(c1)C(O)C(O)CC1OC1C(=O)/C=C/CC(C)OC2=O (centres undefined)", "growth inhibition (%)": 91.5}
{"molecule": "NC(=S)Nc1c(Br)cc(Br)cc1Br", "growth inhibition (%)": 62.5}
{"molecule": "CCC12C=CCN3CC[C@@]4(c5cc([C@@]6(C(=O)OC)C[C@@H]7CN(CCc8c6[nH]c6ccccc86)C[C@](O)(CC)C7)c(OC)cc5N(C)[C@H]4[C@@](O)(C(=O)OC)[C@@H]1OC(=O)CCCCCCCCCCCN1C(=O)C=CC1=O)[C@H]32 (some centres undefined)", "growth inhibition (%)": 88.5}
{"molecule": "CC1=CC(=O)CC(c2ccccc2)C1 (centres undefined)", "growth inhibition (%)": 97.6}
{"molecule": "C#C[C@]1(OC(C)=O)CC[C@H]2[C@@H]3CCC4=CC(=O)CC[C@@H]4[C@H]3CC[C@@]21C", "growth inhibition (%)": 97.6}
{"molecule": "CSc1c(S(C)=O)c2ccccc2n1C (centres undefined)", "growth inhibition (%)": -20.6}
{"molecule": "CC(=O)Oc1c2c(c(OC(C)=O)c3c1n(C(C)=O)c1ccccc1n3C(C)=O)n(C(C)=O)c1ccccc1n2C(C)=O", "growth inhibition (%)": 78.2}
{"molecule": "Clc1ccc([O][In]([O]c2ccc(Cl)cn2)[O]c2ccc(Cl)cn2)nc1", "growth inhibition (%)": 68.2}
{"molecule": "CCOC(=O)/C=C\\c1c(Cl)n(-c2ccccc2)c(=O)n(-c2ccccc2)c1=O", "growth inhibition (%)": 87.7}
{"molecule": "O=c1[nH]c2c([N+](=O)[O-])cc(Cl)cc2nc1/C=C(\\O)c1ccco1", "growth inhibition (%)": 72.7}
{"molecule": "O=C(CN(Cc1ccccc1)Cc1ccccc1)N1CCc2c([nH]c3ccccc23)C1c1cccnc1 (centres undefined)", "growth inhibition (%)": 86.8}
{"molecule": "OC(CCN1CCOCC1)c1ccc(Sc2ccccc2)cc1 (centres undefined)", "growth inhibition (%)": 98}
{"molecule": "CC[N+](C)(CC)CCC(=O)/C=C/c1ccccc1", "growth inhibition (%)": 87.5}
{"molecule": "CN(C)c1ccc(C=Nc2cnc3ccccc3c2)cc1", "growth inhibition (%)": -54.4}
{"molecule": "NC(=O)CCSC(=S)N1CCOCC1", "growth inhibition (%)": -8.55}
{"molecule": "O=C(COc1ccc(Br)cc1Br)N1N=C(c2ccc([N+](=O)[O-])o2)CC1(O)c1ccccc1 (centres undefined)", "growth inhibition (%)": 19.4}
{"molecule": "CCCCCCCCCCCCOc1c(Cl)cc(Cl)c(Cl)c1Cc1c(O)c(Cl)cc(Cl)c1Cl", "growth inhibition (%)": 97.5}
{"molecule": "CCCCCCCCCCCCCCSC(=NCC)NCC", "growth inhibition (%)": 99.2}
{"molecule": "CC(C)NC(=O)OCc1c2c(n(C)c1COC(=O)NC(C)C)-c1ccccc1CC2", "growth inhibition (%)": 98.2}
{"molecule": "CC(=O)Nc1ccc(/C=C2/NC(=S)N(/C=C3\\C(=O)Oc4ccccc4C3=O)C2=O)cc1", "growth inhibition (%)": 70.7}
{"molecule": "Cn1c(=O)c2c(nnc(-c3ccccc3)[n+]2[O-])n(C)c1=O", "growth inhibition (%)": 99.5}
{"molecule": "CCC(C)NC(=S)N/N=C(\\C)c1ccccn1 (centres undefined)", "growth inhibition (%)": 78}
{"molecule": "O=C1c2ccccc2C2(O)c3cc4ccccc4cc3OC12O (centres undefined)", "growth inhibition (%)": 52.2}
{"molecule": "O=C(CC(=O)c1ccccc1)CC(=O)c1ccccc1Cl", "growth inhibition (%)": 88.1}
{"molecule": "COc1c(I)cc(I)c(O)c1I", "growth inhibition (%)": 94.4}
{"molecule": "NNc1c(Cl)cc(Cl)cc1Cl", "growth inhibition (%)": 98.2}
{"molecule": "COc1cc(CCN=Cc2cc(Cl)cc(Cl)c2O)c([N+](=O)[O-])cc1OC", "growth inhibition (%)": 58.8}
{"molecule": "O=C(NC1CCN(Cc2ccccc2)CC1)c1cccc(I)c1", "growth inhibition (%)": 51.7}
{"molecule": "COc1ccc2c(c1OC)C1=C(C2=O)c2cc3c(cc2CCN1)OCO3", "growth inhibition (%)": 23.1}
{"molecule": "CCCC(=O)c1ccc(OC)cc1", "growth inhibition (%)": 41.9}
{"molecule": "O=S(=O)(Nc1ccccc1)c1ccccc1C#Cc1ccccc1", "growth inhibition (%)": 89.8}
{"molecule": "COCCOC1=C(Cl)C(=O)c2c(O)ccc(O)c2C1=O", "growth inhibition (%)": 90.5}
{"molecule": "O=C(O)CCC/C(=N\\Nc1ccccc1)C(=O)O", "growth inhibition (%)": 98.5}
{"molecule": "O=C1C=CC(=O)N1c1ccccc1[N+](=O)[O-]", "growth inhibition (%)": 99.5}
{"molecule": "CCC(C)(C)c1ccc(OCCO)c([N+](=O)[O-])c1", "growth inhibition (%)": 77.3}
{"molecule": "O=C1C(N2CCOCC2)=C(Cl)C(=O)c2ncccc21", "growth inhibition (%)": 83.8}
{"molecule": "CCC(C)SC1SCC2C(=O)N(C)C3(CC3C)C(=O)OCC(NC(=O)c3nc4ccccc4cc3O)C(=O)NC(C)C(=O)N(C)C1C(=O)N(C)C1(CC1C)C(=O)OCC(NC(=O)c1nc3ccccc3cc1O)C(=O)NC(C)C(=O)N2C (centres undefined)", "growth inhibition (%)": 89.7}
{"molecule": "CC(C)OC(=O)CCCCCC1CCCCC1", "growth inhibition (%)": 0.95}
{"molecule": "CCn1cnc2[nH]cc(C#N)c2c1=O", "growth inhibition (%)": 7.7}
{"molecule": "COC(=O)C(=O)C(C(=O)C(=O)Nc1ccc(C)cc1C)c1nc2ccccc2[nH]c1=O (centres undefined)", "growth inhibition (%)": 17}
{"molecule": "CCOCCNCc1ccc(Cl)c(Cl)c1", "growth inhibition (%)": 4.05}
{"molecule": "CCCC(=O)Oc1ccc(-c2ccccc2)cc1Br", "growth inhibition (%)": 96.5}
{"molecule": "S=c1sc2c(s1)SCCOCCOCCOCCS2", "growth inhibition (%)": 29.3}
{"molecule": "O=C1c2ccccc2C2N1CCCN2C(=O)c1sc2ccccc2c1Cl (centres undefined)", "growth inhibition (%)": 90}
